measured on: toll-like receptor 9 (TLR9) (Homo sapiens, UniProt Q9NR96)
Construct: we isolated PBMCs from venous blood collected from healthy donors using density gradient centrifugation; endogenous in cells
Sequence (Q9NR96 26-1032): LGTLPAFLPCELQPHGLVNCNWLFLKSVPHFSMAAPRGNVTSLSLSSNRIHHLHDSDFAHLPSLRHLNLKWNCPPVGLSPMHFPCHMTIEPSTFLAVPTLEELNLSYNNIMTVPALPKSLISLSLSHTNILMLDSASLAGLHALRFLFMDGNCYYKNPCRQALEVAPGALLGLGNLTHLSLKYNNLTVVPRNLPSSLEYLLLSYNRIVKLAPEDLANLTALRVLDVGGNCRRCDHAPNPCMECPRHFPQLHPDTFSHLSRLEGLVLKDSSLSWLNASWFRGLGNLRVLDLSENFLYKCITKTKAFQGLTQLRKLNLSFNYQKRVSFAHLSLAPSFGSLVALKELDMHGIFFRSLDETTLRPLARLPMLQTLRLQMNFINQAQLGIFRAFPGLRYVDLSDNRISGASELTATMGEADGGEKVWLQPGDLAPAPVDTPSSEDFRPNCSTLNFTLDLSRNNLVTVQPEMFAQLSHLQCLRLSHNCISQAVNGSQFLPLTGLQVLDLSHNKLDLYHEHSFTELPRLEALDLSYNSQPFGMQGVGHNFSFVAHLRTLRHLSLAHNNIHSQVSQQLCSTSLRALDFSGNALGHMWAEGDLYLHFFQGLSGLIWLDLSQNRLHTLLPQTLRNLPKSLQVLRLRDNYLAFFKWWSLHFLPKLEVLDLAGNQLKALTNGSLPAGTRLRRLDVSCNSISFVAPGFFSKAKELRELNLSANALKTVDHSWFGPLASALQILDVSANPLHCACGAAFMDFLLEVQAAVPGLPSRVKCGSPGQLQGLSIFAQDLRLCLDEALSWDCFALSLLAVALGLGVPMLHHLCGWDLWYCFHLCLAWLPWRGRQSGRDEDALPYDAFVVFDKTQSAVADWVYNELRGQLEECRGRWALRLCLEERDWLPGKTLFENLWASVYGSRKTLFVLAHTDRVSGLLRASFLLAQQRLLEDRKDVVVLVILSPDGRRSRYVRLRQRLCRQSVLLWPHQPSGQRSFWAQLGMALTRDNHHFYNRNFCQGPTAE
test: Screening of TLR9 antagonistic activity: IFN-alpha production from human PBMC in response to CpGA (ELISA)
condition info: TLR9 antagonism; Table 2 does not say which of the three TLR9 assays
Lab note - cut at 300 nM for IC50: 1 if strictly below, -1 if not.

q: Given the entry `CCN1CCN(CCCn2cnc3c(N4CCN(C5CCCC5)CC4)nc(NCc4ccc(F)cc4)nc32)CC1` , would its reported IC50 be below 300 nM?
a: 1

q: # check: IC50 < 300 nM for `CCN1CCN(CCCn2cnc3c(N4CCN(C5CCCC5)CC4)nc(NCc4ccc(N(CC)CC)cc4)nc32)CC1`
a: 1

q: For this molecule, is IC50 lower than 300 nM? `COc1ccc(CNc2nc(N3CCN(C4CCCC4)CC3)c3ncn(CCCN4CCCC4)c3n2)cc1`
a: 1

q: In plain terms, does `CCN1CCN(CCCn2cnc3c(N4CCN(CC)CC4)nc(NCc4ccc(OC)cc4)nc32)CC1` come in under 300 nM for IC50?
a: 1

q: Lab note: confirm whether the reported IC50 for this molecule is below 300 nM, equality not counting. molecule: `CCN1CCN(CCCn2cnc3c(N4CCN(C5CCCC5)CC4)nc(NCc4ccc(OC)cc4)nc32)CC1`
a: 1

q: Report whether reported IC50 is lower than 300 nM (strictly) for `CCN1CCN(CCCn2cnc3c(N4CCN(CC)CC4)nc(NCc4ccc(N(CC)CC)cc4)nc32)CC1`
a: -1

q: IC50 under 300 nM? Item: `Nc1nc(N2CCN(C3CCCC3)CC2)c2ncn(CCCN3CCCC3)c2n1`
a: 1

q: Decide: IC50 of `CCN1CCN(CCCn2cnc3c(N4CCN(C5CCCC5)CC4)nc(NC(=O)c4ccc(CN(C)C)cc4)nc32)CC1` strictly below 300 nM?
a: 1

q: Is 300 nM strictly greater than the molecule's reported IC50? molecule: `CCN1CCN(CCCn2cnc3c(N4CCN(CC)CC4)nc(NCc4ccc(F)cc4)nc32)CC1`
a: -1

q: Is IC50 strictly under 300 nM for the entry `CCN1CCN(CCCn2cnc3c(N4CCN(C(=O)C5CCCC5)CC4)nc(NCc4ccc(N(CC)CC)cc4)nc32)CC1` ?
a: -1

q: # TODO verify IC50 < 300 nM strictly for this molecule: `CCN1CCN(CCCn2cnc3c(N4CCN(CC)CC4)nc(NCc4ccccc4)nc32)CC1`
a: 1

q: Identify whether the molecule `CCN1CCN(CCCn2cnc3c(N4CCN(CC)CC4)nc(N4CCCC4)nc32)CC1` records IC50 below 300 nM.
a: -1

q: Does this molecule meet the criterion IC50 < 300 nM? `CCN1CCN(c2nc(NCc3ccc(OC)cc3)nc3c2ncn3CCCN2CCCC2)CC1`
a: 1

q: Item `Fc1ccc(CNc2nc(N3CCN(C4CCCC4)CC3)c3ncn(CCCN4CCCC4)c3n2)cc1` : IC50 beneath 300 nM, strictly?
a: 1

q: Please determine if CCN1CCN(CCCn2cnc3c(N4CCN(CC)CC4)nc(NC(=O)C4CCCN4)nc32)CC1 (stereo not drawn) is below 300 nM in terms of IC50.
a: -1

q: State whether 300 nM exceeds IC50 recorded for `CCN1CCN(CCCn2cnc3c(N4CCN(CC)CC4)nc(NC(=O)c4ccccc4)nc32)CC1` .
a: -1

q: Here's an entry: `CCN1CCN(CCCn2cnc3c(N4CCN(CC)CC4)nc(N)nc32)CC1` . Is its IC50 below 300 nM?
a: 1

q: Is the reported IC50 for `CN(C)Cc1ccc(C(=O)Nc2nc(N3CCN(C4CCCC4)CC3)c3ncn(CCCN4CCCC4)c3n2)cc1` strictly below 300 nM?
a: 1

Reference source for all entries: patent US11168084B2
